experiment: Primary qHTS for delayed death inhibitors of the malarial parasite plastid, 96 hour incubation; conditions: P. falciparum luciferase reporter growth; series mostly up to 28.7 µM
The whole screen tested about 320,000 compounds, of which about 22,000 (6.9%) were called active. Not shown: some 27% with an inconclusive outcome. Calls follow the shape of the dose curve; as a rule, active = well fitted inhibition curve with a large enough effect; inconclusive = small, poorly fitted or top-dose-only effect, or another doubt; inactive = no such curve, though single readings can be large or run the other way. This excerpt belongs to a sample that is enriched for actives.
Outcomes: 1.0 for active, 0.0 for inactive

{"Compound": "COc1ccc(C(=O)N[C@H](C(=O)NCc2ccccc2)C(C)C)cc1", "Answer Label": 0.0}
{"Compound": "CCOC(=O)C1=C(c2ccc(OC)cc2)C(=O)c2ccccc2C1=O", "Answer Label": 0.0}
{"Compound": "COc1ccc(C(C)=O)cc1COc1ccc(Cl)c(C)c1", "Answer Label": 0.0}
{"Compound": "Cc1cc(C(=O)N/N=C/c2ccccc2[N+](=O)[O-])c(C)o1", "Answer Label": 0.0}
{"Compound": "O=C(CSc1nnc(CN2CCCC2)n1-c1ccc(F)cc1)c1ccc2c(c1)OCO2", "Answer Label": 0.0}
{"Compound": "CCN(CC)CCOC(=O)c1cc2cc(COC)ccc2o1", "Answer Label": 0.0}
{"Compound": "CN(NS(=O)(=O)c1cccs1)c1ncc(C(F)(F)F)cc1Cl", "Answer Label": 0.0}
{"Compound": "Cc1cc(C(=O)N/N=C\\C(Br)=C\\c2ccccc2)c(C)o1", "Answer Label": 0.0}
{"Compound": "CCc1cccc(C)c1NC(=O)COC(=O)CC1CCCC1", "Answer Label": 0.0}
{"Compound": "CC(=C/c1ccccc1)/C=N/NC(=O)c1cc(C)oc1C", "Answer Label": 1.0}
{"Compound": "CCC(C(=O)OCCN(CC)CC)c1ccccc1 (stereo not drawn)", "Answer Label": 0.0}
{"Compound": "Cc1cccc(C)c1NC(=O)CSc1nc2c([nH]1)c(=O)n(C)c(=O)n2C", "Answer Label": 0.0}
{"Compound": "Cc1cccc(OCC(=O)NCC(=O)N/N=C/c2ccc(N(C)C)cc2)c1", "Answer Label": 1.0}
